Assay Name: endothelial E-selectin expression blockers – imaging, HUVEC, immunofluorescence, MLSMR starter and 10KST1 sets, primary screen (AID 487);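 note: 100% = median nuclei count of all wells on the same plate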
Condition: HUVEC TNFalpha-induced E-selectin immunofluorescence imaging, at 2 µM; measured here: cell number, toxicity
Property Label: nuclei count (%)
Your answer should be a plain number; it is taken to be in %.

IN: Need nuclei count, item COC(=O)C1=C(C)NC(C)=C(C(=O)OC)C1C(=O)OC1CCCCC1=O (stereo not drawn)
OUT: 80.2

IN: Query Cc1ccc(S(=O)(=O)N2CCN(C(=O)CSC3CCCC3)CC2)c(C)c1 next
OUT: 110

IN: Query Cn1nc(C(=O)Nc2cccc(C(F)(F)F)c2)ccc1=O next
OUT: 104

IN: Query O=S(=O)(c1cccc2c(S(=O)(=O)N3CCCC3)cccc12)N1CCCC1 next
OUT: 88.6

IN: Query N#Cc1c(N2C(=O)C3C4C=CC(C4)C3C2=O)sc2c1CCC2 (stereo not drawn) next
OUT: 96.7

IN: Query Cn1nnnc1SCC(=O)N1CCN(c2ccccc2)CC1 next
OUT: 97.6

IN: Query C=C(C)Cn1c(CCNC(=O)CC)nc2ccccc21 next
OUT: 112

IN: Query COc1cc(OC)c(C(=O)Nc2ncn[nH]2)cc1OC next
OUT: 108

IN: Query CCOc1ccc(C2C(C(=O)OC)=CN(CCOC)C=C2C(=O)OC)cc1 next
OUT: 110

IN: Query Cc1cc(C)nc(SCc2ccc3nonc3c2)n1 next
OUT: 97.4

IN: Query COc1ccc(/C=N/n2cnnc2SCc2ccc(OC)cc2)cc1 next
OUT: 108

IN: Query C(/CCc1ccccc1)=N\n1cnnc1 next
OUT: 105

IN: Query CCc1nnc(NC(=O)c2ccc(S(=O)(=O)NC3CCCCC3)cc2)s1 next
OUT: 110

IN: Query Cc1cccc(C)c1NC(=O)c1cc(S(=O)(=O)N2CCOCC2)ccc1F next
OUT: 80.9

IN: Query COc1cc(C2C(C#N)=C(C)NC3=C2C(=O)CC(C)(C)C3)ccc1O (stereo not drawn) next
OUT: 103

IN: Query Nc1nc(N2CCN(C/C=C/c3ccccc3)CC2)nc2ccccc12 next
OUT: 139

IN: Query CC12C(=O)N(CCC(=O)O)C(=O)C1C1C=CC2C1 (stereo not drawn) next
OUT: 114

IN: Query COc1ccccc1NC(=O)N(Cc1ccco1)Cc1cc2c(C)ccc(C)c2[nH]c1=O next
OUT: 100

IN: Query COc1ccc(CC(=O)Nc2ccc(-c3nnc(-c4ccc(C)cc4)o3)cc2)cc1 next
OUT: 109

IN: Query COc1ccc(-c2nnc(SCC(=O)N3CCOCC3)o2)cc1OC next
OUT: 78.3

IN: Query O=C(Nc1ccc(S(=O)(=O)N2CCCCCC2)cc1)c1ccco1 next
OUT: 126

IN: Query O=C(Nc1ccc(-c2nc3ncccc3o2)cc1)c1ccc(Br)o1 next
OUT: 100

IN: Query COc1cccc(C(=O)Nc2ccc(NC(C)=O)cn2)c1 next
OUT: 123
